# Target Entity: T1, human Y2 receptor (human, UniProt P49146)
# T1 sequence: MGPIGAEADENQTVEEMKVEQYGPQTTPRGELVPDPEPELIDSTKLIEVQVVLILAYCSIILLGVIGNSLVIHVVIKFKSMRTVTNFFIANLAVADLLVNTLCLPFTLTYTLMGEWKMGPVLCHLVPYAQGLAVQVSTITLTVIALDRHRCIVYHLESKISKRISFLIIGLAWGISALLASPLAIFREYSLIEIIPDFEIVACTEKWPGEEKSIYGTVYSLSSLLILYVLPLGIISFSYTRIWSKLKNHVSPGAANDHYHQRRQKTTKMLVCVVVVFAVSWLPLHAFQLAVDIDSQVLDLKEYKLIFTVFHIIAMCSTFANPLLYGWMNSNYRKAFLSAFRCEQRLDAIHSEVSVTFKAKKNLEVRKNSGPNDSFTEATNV
# Test Summary: 125I-PYY displacement, COS-7 membranes
Ends that are not written are not given here.
Measurement Type: Ki (nM)
# unit: nM | format: bare number

Item HYINLITRQRY (ends and bridges not checked) [porcine NPY26-36] has what recorded Ki? 380
